- system_name: Cardiac Na+ channels (Homo sapiens, UniProt Q14524)
- Sequence (Q14524 whole entry): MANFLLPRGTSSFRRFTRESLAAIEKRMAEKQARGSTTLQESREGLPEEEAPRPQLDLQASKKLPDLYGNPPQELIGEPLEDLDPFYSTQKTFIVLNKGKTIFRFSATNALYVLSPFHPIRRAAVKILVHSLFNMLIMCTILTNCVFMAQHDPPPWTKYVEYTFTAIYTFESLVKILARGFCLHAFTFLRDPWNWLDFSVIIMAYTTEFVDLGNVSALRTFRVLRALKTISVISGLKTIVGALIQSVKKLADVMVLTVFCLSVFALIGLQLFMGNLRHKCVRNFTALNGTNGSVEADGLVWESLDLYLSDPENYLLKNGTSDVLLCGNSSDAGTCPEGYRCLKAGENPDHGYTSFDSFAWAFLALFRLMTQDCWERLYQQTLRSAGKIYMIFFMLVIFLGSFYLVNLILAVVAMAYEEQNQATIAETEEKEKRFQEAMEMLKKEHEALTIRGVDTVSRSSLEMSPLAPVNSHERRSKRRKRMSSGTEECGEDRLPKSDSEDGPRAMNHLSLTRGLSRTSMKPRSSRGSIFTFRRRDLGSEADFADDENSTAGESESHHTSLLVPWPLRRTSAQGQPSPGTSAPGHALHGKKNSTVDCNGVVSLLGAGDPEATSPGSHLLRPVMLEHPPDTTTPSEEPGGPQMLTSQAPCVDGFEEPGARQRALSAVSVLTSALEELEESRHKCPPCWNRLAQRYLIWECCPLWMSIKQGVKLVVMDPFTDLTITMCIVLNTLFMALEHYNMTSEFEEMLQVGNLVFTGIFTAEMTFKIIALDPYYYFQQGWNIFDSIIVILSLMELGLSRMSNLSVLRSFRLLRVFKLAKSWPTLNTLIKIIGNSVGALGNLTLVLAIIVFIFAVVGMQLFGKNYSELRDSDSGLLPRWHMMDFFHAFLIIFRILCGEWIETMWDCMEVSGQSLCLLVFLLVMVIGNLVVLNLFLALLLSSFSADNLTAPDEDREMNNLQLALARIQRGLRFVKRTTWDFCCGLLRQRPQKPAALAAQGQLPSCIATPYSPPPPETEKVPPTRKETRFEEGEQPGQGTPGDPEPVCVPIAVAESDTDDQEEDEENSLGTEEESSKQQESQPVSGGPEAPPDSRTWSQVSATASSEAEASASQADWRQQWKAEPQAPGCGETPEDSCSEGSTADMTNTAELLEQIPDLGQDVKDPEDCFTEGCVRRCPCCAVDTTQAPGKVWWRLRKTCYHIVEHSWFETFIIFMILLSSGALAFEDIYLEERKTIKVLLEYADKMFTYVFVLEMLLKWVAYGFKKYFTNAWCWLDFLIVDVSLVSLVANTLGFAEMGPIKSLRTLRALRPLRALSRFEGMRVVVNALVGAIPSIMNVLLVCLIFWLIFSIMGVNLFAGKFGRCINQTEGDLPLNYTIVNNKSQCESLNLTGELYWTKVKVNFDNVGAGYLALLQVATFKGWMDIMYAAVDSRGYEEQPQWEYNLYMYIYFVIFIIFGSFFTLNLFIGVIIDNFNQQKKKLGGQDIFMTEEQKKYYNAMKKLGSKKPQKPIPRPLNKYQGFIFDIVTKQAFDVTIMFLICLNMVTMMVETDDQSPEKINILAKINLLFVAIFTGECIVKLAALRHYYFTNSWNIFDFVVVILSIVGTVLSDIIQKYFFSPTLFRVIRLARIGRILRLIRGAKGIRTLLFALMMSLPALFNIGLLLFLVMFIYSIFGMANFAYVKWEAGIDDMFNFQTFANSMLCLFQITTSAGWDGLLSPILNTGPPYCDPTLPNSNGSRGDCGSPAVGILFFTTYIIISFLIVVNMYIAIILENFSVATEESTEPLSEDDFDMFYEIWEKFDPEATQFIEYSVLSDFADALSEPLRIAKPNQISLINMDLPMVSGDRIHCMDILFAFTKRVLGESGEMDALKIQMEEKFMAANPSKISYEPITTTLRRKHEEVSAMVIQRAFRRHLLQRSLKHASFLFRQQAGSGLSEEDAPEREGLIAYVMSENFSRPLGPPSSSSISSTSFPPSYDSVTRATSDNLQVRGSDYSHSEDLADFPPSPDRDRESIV
- method: Cardiac sodium currents in human iPSC-derived cardiomyocytes
- test_conditions: human iPSC cardiomyocytes
pIC50: −log10 of the molar value.
Some molecules, each annotated with its measured pIC50.

molecule: CC(C)(C)NC(=O)CN1CCC2(CC1)C[C@H]2C(=O)Nc1cc(C(F)(F)F)cc(C(F)(F)F)c1 (single isomer, unassigned) [Example 132]
pIC50: 4.29

molecule: CC(C)(C)CCN1CCC2(CC1)C[C@H]2NC(=O)c1cc(C(F)(F)F)cc(C(F)(F)F)c1 (single isomer, unassigned) [Example 146]
pIC50: 4.56

molecule: CC(C)(C)CCN1CCC2(CC1)C[C@H]2NC(=O)c1cc(C(F)(F)F)ccc1Cl (single isomer, unassigned) [Example 147]
pIC50: 4.37

molecule: CC(C)(C)NC(=O)CN1CCC(CNC(=O)c2cc(F)cc(Cl)c2)CC1 [Z944, reference compound]
pIC50: 4.67

molecule: CC(C)(C)NC(=O)CN1CCC2(CC1)CC2NC(=O)c1cc(F)cc(Cl)c1 (single isomer, unassigned) [Example 128]
pIC50: 4.08

molecule: CC(C)(C)NC(=O)CN1CCC2(CC1)C[C@H]2NC(=O)c1cc(F)cc(C(F)(F)F)c1 (single isomer, unassigned) [Example 130]
pIC50: 4.50

molecule: CC(C)(C)NC(=O)CN1CCC2(CC1)C[C@H]2NC(=O)c1cc(C(F)(F)F)cc(C(F)(F)F)c1 (single isomer, unassigned) [Example 144]
pIC50: 4.72

molecule: CC(C)(C)CCN1CCC2(CC1)CC2NC(=O)c1cc(F)cc(Cl)c1 (stereo not shown) [Example 28]
pIC50: 4.43

molecule: CC(C)(C)NC(=O)CN1CCC2(CC1)C[C@H]2NC(=O)c1cc(Cl)cc(Cl)c1 (single isomer, unassigned) [Example 57]
pIC50: 4.29

molecule: CC(C)(C)CCN1C[C@@H]2[C@@H](CNC(=O)c3cc(Cl)cc(Cl)c3)[C@@H]2C1 [ML218, reference compound]
pIC50: 4.40
